# Study Target: TNFα trimer (Homo sapiens)
# Experimental Details: TNFα FP Competitive Binding Assay
# Experimental Context: FP binding assay; 20 nM TNFα trimer, 1 nM OregonGreen488 probe; read-out: TNF IC50
Measured Endpoint: IC50

Worked examples follow.
CC(=O)N1CCN(c2ncc(-c3ccc4c(=O)n(C)n(Cc5cc(C)ccc5SC(F)F)c4n3)cn2)C[C@H]1C : < 1 µM
Cn1c(=O)c2ccc(-c3cnc(C(C)(C)O)nc3)cc2n1Cc1ccccc1OC(F)F : 1 to 10 µM
CC(=O)N1CCN(c2ncc(-c3ccc4c(=O)n(C)n(Cc5c(CO)cccc5OC(F)F)c4c3)cn2)C[C@H]1C : < 1 µM
Cn1c(=O)c2ccc(-c3ccc(N4CCNCC4)nc3)cc2n1Cc1ccccc1OC(F)F : 1 to 10 µM
Cn1c(=O)c2ccc(-c3cnc(N4CC[C@@H](C(=O)O)C4)nc3)cc2n1Cc1ccccc1OC(F)F : > 10 µM
Cn1c(=O)c2ccc(-c3cnc(N4CCOCC4)nc3)cc2n1C(=O)c1ccccc1OC(F)F : > 10 µM
CC(c1ccccc1)n1c2cc(-c3cnc(N4CCN(C(=O)CO)[C@H](C)C4)nc3)ccc2c(=O)n1C (some centres unmarked) : < 1 µM
Cc1ccc(Cl)c(Cn2c3nc(-c4cnc(N5CCN(C(=O)CO)C[C@H]5C)nc4)ccc3c(=O)n2C)c1 : < 1 µM

Suppose we examine the compound `Cc1c(-c2cnc(N3CCN(C(=O)CO)[C@H](C)C3)nc2)ccc2c(=O)n(C)n(Cc3ccccc3OC(F)F)c12` ; what IC50 value has been reported? < 1 µM

Suppose we examine the compound `CC(=O)N1CCN(c2ncc(-c3ccc4c(=O)n(C)n(Cc5nc(C)ccc5Cl)c4c3)cn2)C[C@H]1C` ; what IC50 value has been reported? < 1 µM

Suppose we examine the compound `Cn1c(=O)c2ccc(-c3ccnc(OC4CCOCC4)c3)cc2n1Cc1ccccc1OC(F)F` ; what IC50 value has been reported? < 1 µM

Suppose we examine the compound `Cn1c(=O)c2ncc(-c3cnc(N4CCOCC4)nc3)cc2n1Cc1ccccc1OC(F)F` ; what IC50 value has been reported? > 10 µM

Suppose we examine the compound `Cn1c(=O)c2ccc(-c3cnc(N4CC(C(=O)O)C4)nc3)cc2n1Cc1ccccc1OC(F)F` ; what IC50 value has been reported? > 10 µM

====

Here the recorded pIC50 is given for each entry.
# Study Target: TNFα trimer (Homo sapiens, UniProt P01375)
# Sequence (P01375 77-233 limits assumed): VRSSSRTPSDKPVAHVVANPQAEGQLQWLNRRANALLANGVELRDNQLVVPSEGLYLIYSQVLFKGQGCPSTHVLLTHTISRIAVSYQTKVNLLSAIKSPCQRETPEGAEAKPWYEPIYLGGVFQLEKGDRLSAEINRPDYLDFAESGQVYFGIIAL
# Experimental Details: TNFα FP Competitive Binding Assay
# Experimental Context: FP binding assay; 20 nM TNFα trimer, 1 nM OregonGreen488 probe; read-out: TNF IC50
# Experimental: TNFα FP Competitive Binding Assay • 1. […] • 1. […] Prior to reading the assay, the plates are placed in a dark cabinet to equilibrate at rt for one hour. • 9. Background-subtracted fluorescence polarization (mP) is measured using a PerkinElmer Envision plate reader. • 10. […]
pIC50: −log10 of the molar value.

Worked examples follow.
CCC(c1cccc(C)c1)n1c2cc(-c3cnc(N4CCN(C(=O)CO)[C@H](C)C4)nc3)ccc2c(=O)n1C (stereo partly shown) : > 6.00
Cc1ccc(OC(F)F)c(Cn2c3cc(-c4cnc(N5CCN(C(=O)C6COC6)[C@H](C)C5)nc4)ccc3c(=O)n2C)c1 : > 6.00
Cn1c(=O)c2ccc(-c3ccnc(N4CCOCC4)c3)cc2n1Cc1ccccc1OC(F)F : < 5.00
CC(C)[C@@H](N)C(=O)OCC(=O)N1CCN(c2ncc(-c3ccc4c(=O)n(C)n(Cc5ccccc5OC(F)F)c4c3)cn2)C[C@H]1C : > 6.00
C[C@@H]1CN(c2ncc(-c3ccc4c(=O)n(C)n(Cc5ccccc5OC(F)F)c4c3)cn2)CCN1C(=O)[C@H](O)CO : > 6.00
CC(=O)N1CCN(c2ncc(-c3ccc4c(=O)n(C)n(Cc5ccccc5OC(F)F)c4c3)cn2)CC1 : > 6.00

// next entry
Suppose we examine the compound `Cc1cc2c(=O)n(C)n(Cc3ccccc3OC(F)F)c2cc1-c1cnc(N2CCC(C(=O)O)CC2)nc1` ; what pIC50 value has been reported? 5.00 to 6.00
